Each entry below carries its recorded relative viability.
- Test system: HCC-78
- experiment: relative viability (nuclei count vs DMSO), 5 days (fraction); higher = more cells survive
- cond: first compound 0.05 µM
Provide a numeric answer; units are not to be included.

molecule: Nc1ccn([C@@H]2O[C@H](CO)[C@@H](O)[C@@H]2O)c(=O)n1 [Cytarabine] + C[C@]1(O)C[C@@H](c2nc(-c3ccc4ccc(-c5ccccc5)nc4c3)c3c(N)nccn32)C1 [Linsitinib] (partner 1 µM)
relative viability: 0.432

Bench note, HCC-78: Nc1ccn([C@@H]2O[C@H](CO)[C@@H](O)[C@@H]2O)c(=O)n1 [Cytarabine] + CC(C)C[C@H](NC(=O)[C@H](Cc1ccccc1)NC(=O)c1cnccn1)B(O)O [Bortezomib] (partner 0.002 µM) , relative viability reads 0.445

====

- Test system: EKVX
- experiment: relative viability (nuclei count vs DMSO), 5 days (fraction); higher = more cells survive
- cond: first compound 0.0002 µM
property: relative viability
Provide a numeric answer; units are not to be included.

// relative viability lookup, molecule = CC(=O)O[C@@]12CO[C@@H]1C[C@H](O)[C@@]1(C)C(=O)[C@H](O)C3=C(C)[C@@H](OC(=O)[C@H](O)[C@@H](NC(=O)OC(C)(C)C)c4ccccc4)C[C@@](O)([C@@H](OC(=O)c4ccccc4)[C@H]21)C3(C)C [Docetaxel] + CC1(C)CCC(c2ccc(Cl)cc2)=C(CN2CCN(c3ccc(C(=O)NS(=O)(=O)c4ccc(N[C@H](CCN5CCOCC5)CSc5ccccc5)c(S(=O)(=O)C(F)(F)F)c4)cc3)CC2)C1 [Navitoclax] (partner 0.5 µM) , result: 0.918

====

Each entry below carries its recorded relative viability.
- Tested on: HCC-366
- experiment: relative viability (nuclei count vs DMSO), 5 days (fraction); higher = more cells survive
- cond: first compound 0.04 µM
Provide a numeric answer; units are not to be included.

For orientation, consider the following solved cases.
compound: Cc1sc2c(c1C)C(c1ccc(Cl)cc1)=N[C@@H](CC(=O)OC(C)(C)C)c1nnc(C)n1-2 [JQ1] + CS(=O)(=O)CCNCc1ccc(-c2ccc3ncnc(Nc4ccc(OCc5cccc(F)c5)c(Cl)c4)c3c2)o1 [Lapatinib] (partner 2 µM)
assayedSystem: HCC-366
value: 1.02
//
compound: Cc1sc2c(c1C)C(c1ccc(Cl)cc1)=N[C@@H](CC(=O)OC(C)(C)C)c1nnc(C)n1-2 [JQ1] + Cc1nc(NC(=O)N2CCC[C@H]2C(N)=O)sc1-c1ccnc(C(C)(C)C(F)(F)F)c1 [Alpelisib] (partner 2 µM)
assayedSystem: HCC-366
value: 0.405
//
compound: Cc1sc2c(c1C)C(c1ccc(Cl)cc1)=N[C@@H](CC(=O)OC(C)(C)C)c1nnc(C)n1-2 [JQ1] + O=C(CCCCCCC(=O)Nc1ccccc1)NO [Vorinostat] (partner 1 µM)
assayedSystem: HCC-366
value: 0.409
//
compound: Cc1sc2c(c1C)C(c1ccc(Cl)cc1)=N[C@@H](CC(=O)OC(C)(C)C)c1nnc(C)n1-2 [JQ1] + N=C(N)NC(=N)NCCc1ccccc1 [Phenformin] (partner 250 µM)
assayedSystem: HCC-366
value: 0.699
//
compound: Cc1sc2c(c1C)C(c1ccc(Cl)cc1)=N[C@@H](CC(=O)OC(C)(C)C)c1nnc(C)n1-2 [JQ1] + CS(=O)(=O)N1CCN(Cc2cc3nc(-c4cccc5[nH]ncc45)nc(N4CCOCC4)c3s2)CC1 [Pictilisib] (partner 1 µM)
assayedSystem: HCC-366
value: 0.136

// relative viability lookup, compound = Cc1sc2c(c1C)C(c1ccc(Cl)cc1)=N[C@@H](CC(=O)OC(C)(C)C)c1nnc(C)n1-2 [JQ1] + CC(=O)c1c(C)c2cnc(Nc3ccc(N4CCNCC4)cn3)nc2n(C2CCCC2)c1=O [Palbociclib] (partner 0.5 µM) , result: 0.415

// relative viability lookup, compound = Cc1sc2c(c1C)C(c1ccc(Cl)cc1)=N[C@@H](CC(=O)OC(C)(C)C)c1nnc(C)n1-2 [JQ1] + NC(=O)Nc1cc(-c2cccc(F)c2)sc1C(=O)N[C@H]1CCCNC1 [AZD7762] (partner 0.2 µM) , result: 0.305

// relative viability lookup, compound = Cc1sc2c(c1C)C(c1ccc(Cl)cc1)=N[C@@H](CC(=O)OC(C)(C)C)c1nnc(C)n1-2 [JQ1] + COc1cccc2cc(-c3nc([C@H]4CC[C@H](C(=O)O)CC4)n4ncnc(N)c34)[nH]c12 [OSI-027] (partner 0.5 µM) , result: 0.958

====

- System: NCI-H3122
- experiment: relative viability (nuclei count vs DMSO), 5 days (fraction); higher = more cells survive
- cond: first compound 0.02 µM
property: relative viability
Provide a numeric answer; units are not to be included.

For orientation, consider the following solved cases.
molecule: CC(=O)O[C@@]12CO[C@@H]1C[C@H](O)[C@@]1(C)C(=O)[C@H](O)C3=C(C)[C@@H](OC(=O)[C@H](O)[C@@H](NC(=O)OC(C)(C)C)c4ccccc4)C[C@@](O)([C@@H](OC(=O)c4ccccc4)[C@H]21)C3(C)C [Docetaxel] + O=C(c1cc(Cc2n[nH]c(=O)c3ccccc23)ccc1F)N1CCN(C(=O)C2CC2)CC1 [Olaparib] (partner 8 µM)
value: 0.129

molecule: CC(=O)O[C@@]12CO[C@@H]1C[C@H](O)[C@@]1(C)C(=O)[C@H](O)C3=C(C)[C@@H](OC(=O)[C@H](O)[C@@H](NC(=O)OC(C)(C)C)c4ccccc4)C[C@@](O)([C@@H](OC(=O)c4ccccc4)[C@H]21)C3(C)C [Docetaxel] + CC(C)C[C@H](NC(=O)[C@H](Cc1ccccc1)NC(=O)c1cnccn1)B(O)O [Bortezomib] (partner 0.002 µM)
value: 0.227

molecule: CC(=O)O[C@@]12CO[C@@H]1C[C@H](O)[C@@]1(C)C(=O)[C@H](O)C3=C(C)[C@@H](OC(=O)[C@H](O)[C@@H](NC(=O)OC(C)(C)C)c4ccccc4)C[C@@](O)([C@@H](OC(=O)c4ccccc4)[C@H]21)C3(C)C [Docetaxel] + CS(=O)(=O)CCNCc1ccc(-c2ccc3ncnc(Nc4ccc(OCc5cccc(F)c5)c(Cl)c4)c3c2)o1 [Lapatinib] (partner 2 µM)
value: 0.242

molecule: CC(=O)O[C@@]12CO[C@@H]1C[C@H](O)[C@@]1(C)C(=O)[C@H](O)C3=C(C)[C@@H](OC(=O)[C@H](O)[C@@H](NC(=O)OC(C)(C)C)c4ccccc4)C[C@@](O)([C@@H](OC(=O)c4ccccc4)[C@H]21)C3(C)C [Docetaxel] + N=C(N)NC(=N)NCCc1ccccc1 [Phenformin] (partner 250 µM)
value: 0.139

molecule: CC(=O)O[C@@]12CO[C@@H]1C[C@H](O)[C@@]1(C)C(=O)[C@H](O)C3=C(C)[C@@H](OC(=O)[C@H](O)[C@@H](NC(=O)OC(C)(C)C)c4ccccc4)C[C@@](O)([C@@H](OC(=O)c4ccccc4)[C@H]21)C3(C)C [Docetaxel] + Cc1nc(NC(=O)N2CCC[C@H]2C(N)=O)sc1-c1ccnc(C(C)(C)C(F)(F)F)c1 [Alpelisib] (partner 2 µM)
value: 0.186

molecule: CC(=O)O[C@@]12CO[C@@H]1C[C@H](O)[C@@]1(C)C(=O)[C@H](O)C3=C(C)[C@@H](OC(=O)[C@H](O)[C@@H](NC(=O)OC(C)(C)C)c4ccccc4)C[C@@](O)([C@@H](OC(=O)c4ccccc4)[C@H]21)C3(C)C [Docetaxel] + O=C(CCCCCCC(=O)Nc1ccccc1)NO [Vorinostat] (partner 1 µM)
value: 0.126

In the following, a different molecule is considered.
Bench note, NCI-H3122: CC(=O)O[C@@]12CO[C@@H]1C[C@H](O)[C@@]1(C)C(=O)[C@H](O)C3=C(C)[C@@H](OC(=O)[C@H](O)[C@@H](NC(=O)OC(C)(C)C)c4ccccc4)C[C@@](O)([C@@H](OC(=O)c4ccccc4)[C@H]21)C3(C)C [Docetaxel] + CC(=O)c1c(C)c2cnc(Nc3ccc(N4CCNCC4)cn3)nc2n(C2CCCC2)c1=O [Palbociclib] (partner 0.5 µM) , relative viability reads 0.114

====

- System: NCI-H1703
- experiment: relative viability (nuclei count vs DMSO), 5 days (fraction); higher = more cells survive
- cond: first compound 0.253 µM
Each entry below carries its recorded relative viability.
Provide a numeric answer; units are not to be included.

For orientation, consider the following solved cases.
molecule: O=c1[nH]c2ccccc2n1C1CCN(CCCC(c2ccc(F)cc2)c2ccc(F)cc2)CC1 [Pimozide] + CS(=O)(=O)CCNCc1ccc(-c2ccc3ncnc(Nc4ccc(OCc5cccc(F)c5)c(Cl)c4)c3c2)o1 [Lapatinib] (partner 2 µM)
relative viability: 0.944
//
molecule: Cc1cnc(-c2cnc(NCCNc3ccc(C#N)cn3)nc2-c2ccc(Cl)cc2Cl)[nH]1 + CS(=O)(=O)N1CCN(Cc2cc3nc(-c4cccc5[nH]ncc45)nc(N4CCOCC4)c3s2)CC1 [Pictilisib] (partner 1 µM)
relative viability: 0.252
//
molecule: Cc1cnc(-c2cnc(NCCNc3ccc(C#N)cn3)nc2-c2ccc(Cl)cc2Cl)[nH]1 + CC(C)C[C@H](NC(=O)[C@H](Cc1ccccc1)NC(=O)c1cnccn1)B(O)O [Bortezomib] (partner 0.002 µM)
relative viability: 0.352
//
molecule: O=c1[nH]c2ccccc2n1C1CCN(CCCC(c2ccc(F)cc2)c2ccc(F)cc2)CC1 [Pimozide] + COc1cc2c(Oc3ccc(NC(=O)C4(C(=O)Nc5ccc(F)cc5)CC4)cc3F)ccnc2cc1OCCCN1CCOCC1 [Foretinib] (partner 0.25 µM)
relative viability: 0.272

// relative viability lookup, molecule = O=c1[nH]c2ccccc2n1C1CCN(CCCC(c2ccc(F)cc2)c2ccc(F)cc2)CC1 [Pimozide] + Cc1nc(NC(=O)N2CCC[C@H]2C(N)=O)sc1-c1ccnc(C(C)(C)C(F)(F)F)c1 [Alpelisib] (partner 2 µM) , result: 0.325
